For each record, write down the corresponding TGI.
Tested on: MDA-MB-231 breast
Assay: NCI tumour cell line growth inhibition, 48 h

Lookup: Report TGI for CC1CCC2C(C)C(=O)OC3OC4(C)CCC1C32OO4 (stereo not drawn) please.
Found: > 100 µM

Lookup: Report TGI for Cc1cc2nc3c(C#N)c4c(c(Nc5ccc(F)cc5)n3c2cc1C)CCC4 please.
Found: > 100 µM

Lookup: Report TGI for COC(=O)CN(CC(=O)NCCCBr)C1CCCCC1N(CC(=O)OC)CC(=O)OC (stereo not drawn) please.
Found: > 100 µM

====

Tested on: M14 melanoma
Experiment: NCI tumour cell line growth inhibition, 48 h
Where a SMILES comes first, the peptide text is derived from it. The star is where a group is joined. Boc = CC(C)(C)OC(=O)*
TRUE means recorded TGI is 20 µM or above; FALSE means it is below 20 µM.

Lookup: Determine whether this molecule has TGI no lower than 20 µM: CCOC(=O)c1c(NS(=O)(=O)c2ccc(C)cc2)sc2c1CCCC2
Found: TRUE

Lookup: Determine whether this molecule has TGI no lower than 20 µM: CCCCCCC1N=C(N)N=C(N)N1c1cccc(Cl)c1 (stereo not given)
Found: FALSE

Lookup: Determine whether this molecule has TGI no lower than 20 µM: COC(=O)C(Cc1ccccc1)NC(=O)C(CS)NC(=O)OC(C)(C)C (stereo not drawn) (Boc-Cys-Phe-OMe; configuration not given here)
Found: TRUE

Lookup: Determine whether this molecule has TGI no lower than 20 µM: O=c1ccc2ccc(CBr)cc2o1
Found: FALSE

Lookup: Determine whether this molecule has TGI no lower than 20 µM: Cc1ccc(Cc2cc(N3CCN(c4cccc(Cl)c4)CC3)nnc2C)cc1
Found: TRUE

Lookup: Determine whether this molecule has TGI no lower than 20 µM: CNC(=O)c1nn(C)c2c1C(C)(C)Cc1cnc(Nc3cccc(N4CCN(C)CC4)c3)nc1-2
Found: FALSE

Lookup: Determine whether this molecule has TGI no lower than 20 µM: O=C(CN1CCN(Cc2ccccc2Cl)CC1)NC1CC(=O)c2c(Br)sc(Br)c21 (stereo not given)
Found: TRUE

Lookup: Determine whether this molecule has TGI no lower than 20 µM: COc1cccc(C=O)c1C(=O)c1cc(O)ccc1O
Found: TRUE

Lookup: Determine whether this molecule has TGI no lower than 20 µM: Cn1c(-c2ccc(-c3cc(-c4cccs4)c(-c4cccs4)n3C)cc2)cc(-c2cccs2)c1-c1cccs1
Found: TRUE

Lookup: Determine whether this molecule has TGI no lower than 20 µM: Cc1cc2cc3cc(C)c(N)cc3nc2cc1N
Found: TRUE

====

Test system: SF-295 CNS
Experiment: NCI tumour cell line growth inhibition, 48 h
For each record, write down the corresponding TGI.
The reply should be a number in µM, with the unit left off.

Lookup: Report TGI for O=C([O][Hg][c]1ccccc1)c1ccccc1 please.
Found: 25.5

Lookup: Report TGI for CN(C)C1CCN(Cc2ccc(NC(=O)c3cncc(C#Cc4cnc(N)c5ncccc45)c3)cc2C(F)(F)F)CC1 please.
Found: 17.3

Lookup: Report TGI for CCc1ccccc1NC(=O)C(C#N)C1=C(Cl)C(=O)c2ccccc2C1=O (centres undefined) please.
Found: 52.6

====

Tested on: SK-OV-3 ovarian
Assay: NCI tumour cell line growth inhibition, 48 h
Measured parameter: TGI

Lookup: Report TGI for CCC12CCCN(Cc3ccccc3)C1c1c(n(C)c3ccccc13)C(CO)C2 (stereo not given) please.
Found: 194 µM

Lookup: Report TGI for CCn1c2nc(=O)n(CCCCCCCCSC(c3ccccc3)(c3ccccc3)c3ccccc3)c(=O)c-2nc2ccccc21 please.
Found: > 100 µM

Lookup: Report TGI for Cn1c(-c2ccc(-c3cc(-c4cccs4)c(-c4cccs4)n3C)cc2)cc(-c2cccs2)c1-c1cccs1 please.
Found: > 100 µM

Lookup: Report TGI for CCN1CCC(CC(=O)Nc2n[nH]c3nnc(-c4cccc(F)c4F)cc23)CC1 please.
Found: > 25 µM

Lookup: Report TGI for COc1ccc(-c2oc3ccccc3c(=O)c2O)cc1OC please.
Found: > 100 µM

Lookup: Report TGI for Cc1cc2c(c(C(=O)NCC(=O)N[C@@H](C)C(=O)OCc3ccccc3)c1)Oc1c(cc(C)cc1C(=O)NCC(=O)N[C@@H](C)C(=O)OCc1ccccc1)S2 please.
Found: > 100 µM

Lookup: Report TGI for COC1=C[C@]2(CCC(=O)O2)[C@@H]2Cc3ccccc3[C@H](O)[C@@H]2C1=O please.
Found: > 100 µM

Lookup: Report TGI for CN1CCN(Cc2ccc(NC(=O)c3cncc(C#Cc4c(N)ncc5ccc(C#N)cc45)c3)cc2C(F)(F)F)CC1 please.
Found: 17.5 µM

Lookup: Report TGI for N#Cc1c(N)oc(-c2ccc([N+](=O)[O-])cc2)c1C#N please.
Found: > 100 µM

Lookup: Report TGI for O=C1/C(=C/c2ccc([N+](=O)[O-])s2)Oc2cc(Cl)ccc21 please.
Found: > 100 µM

Lookup: Report TGI for OCc1ccc(-c2csc(-c3ccc(CO)o3)c2)o1 please.
Found: > 100 µM

Lookup: Report TGI for O=Cc1cccc2ccc3ccccc3c12 please.
Found: 46.5 µM

Lookup: Report TGI for O=C1/C(=C/c2ccc(Cl)cc2)Oc2cc(O)ccc21 please.
Found: 78.8 µM

Lookup: Report TGI for Fc1cc(F)c(F)c(S)c1F please.
Found: > 100 µM

Lookup: Report TGI for COc1ccc2c(c1)CC[C@@H]1C2CC[C@]2(C)C(=O)N(CCN(C)C)C(=O)CC12 (stereo not given in full) please.
Found: > 100 µM

Lookup: Report TGI for CS(=O)(=O)N1CCC(n2c(=O)c(Oc3ccc(F)cc3F)cc3cnc(NC4CCOCC4)nc32)CC1 please.
Found: > 25 µM

Lookup: Report TGI for COC1OCC(O)C(NC(=O)N(C)N=O)C1O (stereo not given) please.
Found: > 100 µM

Lookup: Report TGI for Cc1ncc([N+](=O)[O-])n1CC[N+](C)([O-])CCCCn1ccnc1[N+](=O)[O-] (stereo not given) please.
Found: > 100 µM

Lookup: Report TGI for c1ccc2c(c1)SC(=C1Sc3ccccc3S1)S2 please.
Found: > 100 µM

Lookup: Report TGI for CC(=O)OCC1OC(N2C(=O)NC(=O)C3C=C4CCCCC4=CC32)CC1OC(C)=O (stereo not given) please.
Found: > 100 µM

Lookup: Report TGI for O=C(O)CCCCn1ccc(=O)[nH]c1=O please.
Found: > 100 µM

Lookup: Report TGI for COC(=O)C1CSC(c2csc(CCN)n2)=N1 (stereo not given) please.
Found: > 100 µM

Lookup: Report TGI for CC(=O)OCC12CN(C#N)C3C4COC(CC41)C1(C(=O)N(C)c4ccccc41)C32 (stereo not given) please.
Found: > 100 µM

Lookup: Report TGI for O=C1/C(=C/c2ccc(O)cc2)CCCC1CN1CCCCC1 (stereo not given) please.
Found: 30.4 µM

Lookup: Report TGI for COC(=O)Oc1nn(C(=O)OC)c(=O)c2ccccc12 please.
Found: > 100 µM

====

System: UO-31 renal
Test: NCI tumour cell line growth inhibition, 48 h
true (1) means recorded TGI is 30 µM or above; false (0) means it is below 30 µM.

Lookup: Determine whether this compound has TGI no lower than 30 µM: Cc1ccc(C)c2c1C(=O)N(c1ccc(F)cc1F)C2=O
Found: true (1)

Lookup: Determine whether this compound has TGI no lower than 30 µM: CNC(=O)N(CCC#N)CCN(C(=O)NC)c1ccccc1
Found: true (1)

Lookup: Determine whether this compound has TGI no lower than 30 µM: COc1cc2c3c(n(CCCN4CCNCC4)c(=O)c2cc1OC)-c1cc2c(cc1C3=O)OCO2
Found: false (0)

Lookup: Determine whether this compound has TGI no lower than 30 µM: CCCCCCCCCCCCCC[n+]1ccccc1
Found: false (0)

Lookup: Determine whether this compound has TGI no lower than 30 µM: O=C(CCCn1c2c(sc3ccccc32)c(=O)n2nnc(-c3ccccc3)c12)NCCc1cnc[nH]1
Found: false (0)

Lookup: Determine whether this compound has TGI no lower than 30 µM: O=C(/C=C/C12c3ccccc3C(c3ccccc31)C1C(=O)N(c3ccc(Cl)cc3)C(=O)C12)c1ccccn1 (centres undefined)
Found: false (0)

Lookup: Determine whether this compound has TGI no lower than 30 µM: C/C=C1/CN2CCC34c5ccccc5N(C)C23C2CC1C4(C(=O)OC)C(OC(C)=O)O2 (centres undefined)
Found: true (1)

Lookup: Determine whether this compound has TGI no lower than 30 µM: COc1cccc2c1OC1Sc3ccccc3-c3nn(-c4ccccc4)c-2c31 (centres undefined)
Found: true (1)

Lookup: Determine whether this compound has TGI no lower than 30 µM: CC(C)=CC1C(C(=O)Oc2ccccc2C(C)C)C1(C)C (centres undefined)
Found: true (1)

Lookup: Determine whether this compound has TGI no lower than 30 µM: O=C(Cn1c(C(=O)c2ccc(Cl)cc2)nc(-c2ccc(Cl)cc2)c1-c1ccc(Cl)cc1)c1ccccc1
Found: true (1)

Lookup: Determine whether this compound has TGI no lower than 30 µM: COc1cc2c3c(n(CCCN(CCCN(CCCn4c5c(c6ccccc6c4=O)C(=O)c4ccccc4-5)C(=O)OC(C)(C)C)C(=O)OC(C)(C)C)c(=O)c2cc1OC)-c1cc2c(cc1C3=O)OCO2
Found: true (1)

Lookup: Determine whether this compound has TGI no lower than 30 µM: N[C@H]1c2c(Br)sc(Br)c2C(=O)[C@H]1O
Found: true (1)

Lookup: Determine whether this compound has TGI no lower than 30 µM: CNC(=O)c1nn(C)c2c1C(C)(C)Cc1cnc(Nc3cccc(N4CCN(C)CC4)c3)nc1-2
Found: false (0)
